assay: Single-dose plasma Drug A concentration vs. time curve fitted to 2-compartment PK model; assay type: in vivo, Human; settings: human, plasma, oral, 120 mg; read-out: Volume of distribution (Vd)
OBSERVED_PROPERTY: Vd (L)
Note: unit L is implicit; provide only the numeric part.

### Prompt Item "CCOC(=O)N1c2ccc(C(F)(F)F)cc2[C@@H](N(Cc2cc(C(F)(F)F)cc(C(F)(F)F)c2)C(=O)OC)C[C@H]1CC" : provide Vd
### Response 174

* * *

assay: Plasma half-life of Drug A; format: in vivo; conditions: read-out: additional long terminal elimination half-life
OBSERVED_PROPERTY: half-life

### Prompt Item "CCOC(=O)N1c2ccc(C(F)(F)F)cc2[C@@H](N(Cc2cc(C(F)(F)F)cc(C(F)(F)F)c2)C(=O)OC)C[C@H]1CC" : provide half-life
### Response 100 to 200 h
